compounds and their reported Color difference ΔE*
assay protocol: Color change of wet-granulated sugar alcohol/oseltamivir phosphate formulation after storage (Example 2)
Type: physicochemical
measurement setup: 27 g additive + 3 g oseltamivir phosphate, wet granulation with water; 60° C. for 4 weeks under a tight seal
// no unit string in output, number only

Ask: Any idea what Color difference ΔE* was measured for OC[C@@H](O)[C@@H](O)[C@H](O)[C@@H](O)CO [D-sorbitol 2, D-sorbitol] ?
Reply: 11.2

Ask: Can you share its Color difference ΔE*? I mean this compound: OC[C@@H](O)[C@@H](O)[C@H](O)[C@H](O)CO
Reply: 3.4

Ask: Consider the compound OC[C@@H](O)[C@@H](O)CO and give its measured Color difference ΔE*.
Reply: 4.7

Ask: Would you mind telling me what Color difference ΔE* value was observed for OC[C@@H](O)[C@@H](O)[C@H](O)[C@@H](O)CO [D-sorbitol 1, D-sorbitol] ?
Reply: 14.6

Values compiled from patent US9012499B2.
